For each of the compounds below, state its recovery at 2 h, 100 μmol/L.
test: Transport of AGE mixture across Caco-2 cell layer (transwell, apical to basolateral); type: in vitro ADME, Human; details: human, Caco-2, 4 °C; mixture, each AGE 100 μmol/L; 2 h; read-out: percentage of the amount added at the apical side at t = 0: recovery
# unit: % | format: bare number

Query: Kindly indicate its recorded recovery at 2 h, 100 μmol/L. Item: Cc1c[n+](CCCC[C@H](N)C(=O)O)cn1CCCC[C@H](N)C(=O)O
Result: 83.1

Query: Kindly indicate its recorded recovery at 2 h, 100 μmol/L. Item: N[C@@H](CCCCNC(=O)CO)C(=O)O [GALA, glycolic acid–lysine–amide]
Result: 89.3

Query: Kindly indicate its recorded recovery at 2 h, 100 μmol/L. Item: N[C@@H](CCCCn1cc[n+](CCCC[C@H](N)C(=O)O)c1)C(=O)O
Result: 89.8

Query: Kindly indicate its recorded recovery at 2 h, 100 μmol/L. Item: Cc1nc(NCCC[C@H](N)C(=O)O)nc(C)c1O
Result: 87.4

Query: Kindly indicate its recorded recovery at 2 h, 100 μmol/L. Item: N[C@@H](CCCCn1c(C=O)ccc1CO)C(=O)O
Result: 87.1

====

For each of the compounds below, state its percentage of the amount added at the apical side at t = 0: apical side.
test system: Caco-2 cell layer; assay: Transport of AGE mixture across Caco-2 cell layer (transwell, apical to basolateral); type: in vitro ADME, Human; settings: 4 °C; mixture, each AGE 100 μmol/L; 2 h
Marks after values point to notes of the source that are not given here.

Query: Print Caco-2 cell layer percentage of the amount added at the apical side at t = 0: apical side for Cc1c[n+](CCCC[C@H](N)C(=O)O)cn1CCCC[C@H](N)C(=O)O .
Result: 83.0 ± 6.5 ^b %

Query: Print Caco-2 cell layer percentage of the amount added at the apical side at t = 0: apical side for Cc1nc(NCCC[C@H](N)C(=O)O)nc(C)c1O .
Result: 87.1 ± 5.4 ^b %

Query: Print Caco-2 cell layer percentage of the amount added at the apical side at t = 0: apical side for CC(NCCCC[C@H](N)C(=O)O)C(=O)O (some centres unmarked) .
Result: 88.8 ± 9.1 ^a %

Query: Print Caco-2 cell layer percentage of the amount added at the apical side at t = 0: apical side for N[C@@H](CCCC[n+]1cccc2[nH]c(NCCC[C@H](N)C(=O)O)nc21)C(=O)O .
Result: 83.2 ± 6.7 ^a %

Query: Print Caco-2 cell layer percentage of the amount added at the apical side at t = 0: apical side for N[C@@H](CCCCNCC(=O)O)C(=O)O .
Result: 89.4 ± 5.3 ^a %

====

tested on: Caco-2 cell layer; test: Transport of AGE mixture across Caco-2 cell layer (transwell, apical to basolateral); format: in vitro ADME, Human; conditions: standard treatment; mixture, each AGE 100 μmol/L; 2 h
Marks after values point to notes of the source that are not given here.
For each of the compounds below, state its percentage of the amount added at the apical side at t = 0: basolateral side (transported).

Query: Print Caco-2 cell layer percentage of the amount added at the apical side at t = 0: basolateral side (transported) for Cc1c[n+](CCCC[C@H](N)C(=O)O)cn1CCCC[C@H](N)C(=O)O [MOLD, methylglyoxal–lysine dimer] .
Result: 0.2 ± 0.2 ^b %

Query: Print Caco-2 cell layer percentage of the amount added at the apical side at t = 0: basolateral side (transported) for CC1NC(NCCC[C@H](N)C(=O)O)=NC1=O (stereo partly drawn) [MG-H1, methylglyoxal–hydroimidazolone] .
Result: 0.4 ± 0.2 ^b %

Query: Print Caco-2 cell layer percentage of the amount added at the apical side at t = 0: basolateral side (transported) for N[C@@H](CCCCn1c(C=O)ccc1CO)C(=O)O [pyrraline] .
Result: 0.2 ± 0.1 ^b %

Query: Print Caco-2 cell layer percentage of the amount added at the apical side at t = 0: basolateral side (transported) for N[C@@H](CCCCn1cc[n+](CCCC[C@H](N)C(=O)O)c1)C(=O)O [GOLD, glyoxal-derived lysine dimer] .
Result: 0.3 ± 0.2 ^b %

Query: Print Caco-2 cell layer percentage of the amount added at the apical side at t = 0: basolateral side (transported) for CC(NCCCC[C@H](N)C(=O)O)C(=O)O (stereo partly drawn) [CEL, N-ε-(carboxyethyl)-lysine] .
Result: 0.4 ± 0.2 ^a %

Query: Print Caco-2 cell layer percentage of the amount added at the apical side at t = 0: basolateral side (transported) for N[C@@H](CCCCNCC(=O)O)C(=O)O [CML, N-ε-(carboxymethyl)-lysine] .
Result: 0.5 ± 0.3 ^b %

Data provenance: paper PMC12426922
